# assay-summary: Cell Viability - LYMP2-002 (AID 977);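 note: compound exposure lasted 24 h at 37 °C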
# experimental-parameters: LYMP2-002 lymphoblastoid cell viability, qHTS; series mostly up to 92.2 µM
# Source text: NIH Chemical Genomics Center [NCGC] NIH Molecular Libraries Screening Centers Network [MLSCN] National Institutes of Environmental Health Sciences [NIEHS] National Toxicology Program [NTP] We have developed a 1536-well cell-based assay for quantitative high throughput screening (qHTS) against a number of cell lines to determine in vitro cytotoxicity of small molecules. […] 8. Detection; Luminescence; Viewlux plate reader […]
Results filed as inconclusive are left out. Activity calls are given as the source filed them. Calls come from the whole dose curve; as a rule, active = well fitted cell-killing curve with a large enough effect; inconclusive = small, poorly fitted or top-dose-only effect; inactive = flat fitted curve, though single readings scatter.
Labels: yes (1) for active, no (0) for inactive

[[record]]
compound_string = "CCNc1cc(O)ccc1C"
assigned_label = "no (0)"

[[record]]
compound_string = "CC(=O)Nc1ccc(N)cc1"
assigned_label = "no (0)"

[[record]]
compound_string = "Nc1c(Cl)cc(Cl)cc1Cl"
assigned_label = "no (0)"

[[record]]
compound_string = "Oc1c(Cl)ccc(Cl)c1Cl"
assigned_label = "no (0)"

[[record]]
compound_string = "CCCCC/C=C/C=C/C=O"
assigned_label = "yes (1)"

[[record]]
compound_string = "O=C(O)CNC(=O)c1ccc(CO)o1"
assigned_label = "no (0)"

[[record]]
compound_string = "C/C(C=O)=C/c1ccccc1"
assigned_label = "no (0)"

[[record]]
compound_string = "Cc1cccc2cccnc12"
assigned_label = "no (0)"


---

# target-of-assay: Voltage-gated inwardly rectifying potassium channel KCNH2 (Homo sapiens) (UniProt Q12809)
# Sequence (Q12809 whole entry, looked up): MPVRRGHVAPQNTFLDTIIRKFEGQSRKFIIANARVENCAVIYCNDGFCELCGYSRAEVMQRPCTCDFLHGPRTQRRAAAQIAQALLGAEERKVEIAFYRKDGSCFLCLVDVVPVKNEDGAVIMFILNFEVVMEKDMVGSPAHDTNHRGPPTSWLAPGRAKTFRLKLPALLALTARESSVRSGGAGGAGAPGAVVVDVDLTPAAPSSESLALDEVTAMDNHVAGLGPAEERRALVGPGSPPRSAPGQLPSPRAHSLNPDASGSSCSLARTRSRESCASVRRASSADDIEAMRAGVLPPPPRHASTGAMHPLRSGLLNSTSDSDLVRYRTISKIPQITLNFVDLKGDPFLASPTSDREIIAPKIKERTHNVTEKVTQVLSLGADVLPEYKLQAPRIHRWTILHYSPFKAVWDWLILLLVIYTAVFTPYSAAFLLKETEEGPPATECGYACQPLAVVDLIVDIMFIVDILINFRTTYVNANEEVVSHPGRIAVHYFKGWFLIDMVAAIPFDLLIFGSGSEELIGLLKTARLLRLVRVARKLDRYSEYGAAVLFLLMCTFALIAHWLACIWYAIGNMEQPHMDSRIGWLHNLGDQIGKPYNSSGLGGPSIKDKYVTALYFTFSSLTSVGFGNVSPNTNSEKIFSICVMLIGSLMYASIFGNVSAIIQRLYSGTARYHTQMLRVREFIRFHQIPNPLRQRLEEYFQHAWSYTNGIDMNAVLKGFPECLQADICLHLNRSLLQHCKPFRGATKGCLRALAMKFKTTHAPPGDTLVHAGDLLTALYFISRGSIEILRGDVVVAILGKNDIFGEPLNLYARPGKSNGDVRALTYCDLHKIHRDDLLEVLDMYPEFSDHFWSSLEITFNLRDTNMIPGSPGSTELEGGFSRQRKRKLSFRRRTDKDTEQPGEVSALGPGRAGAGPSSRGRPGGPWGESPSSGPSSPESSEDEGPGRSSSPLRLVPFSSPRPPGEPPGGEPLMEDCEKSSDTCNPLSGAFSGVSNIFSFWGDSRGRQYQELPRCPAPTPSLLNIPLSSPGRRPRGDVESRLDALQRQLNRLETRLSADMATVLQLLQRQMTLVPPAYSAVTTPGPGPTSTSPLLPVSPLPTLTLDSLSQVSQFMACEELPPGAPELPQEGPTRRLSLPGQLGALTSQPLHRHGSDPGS
# assay-summary: qHTS Assay for Small Molecule Inhibitors of the Human hERG Channel Activity (AID 588834);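 note: lower thallium flux fluorescence means stronger hERG block; nearly all actives have a fitted effect of over 50% in size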
# experimental-parameters: U2OS BacMam hERG, FluxOR thallium flux fluorescence; series mostly up to 92.2 µM
Records with an inconclusive call do not appear. Activity calls are given as the source filed them. Calls follow the shape of the dose curve; as a rule, active = well fitted inhibition curve with a large enough effect; inconclusive = small, poorly fitted or top-dose-only effect; inactive = flat fitted curve, though single readings scatter.
Labels: active, inactive

[[record]]
compound = "C1CCC2OC2C1 (stereo unspecified)"
assigned_label = "inactive"

[[record]]
compound = "O=C(O)c1ccc(C(=O)O)cc1"
assigned_label = "inactive"

[[record]]
compound = "Cc1cccc2sc(N)nc12"
assigned_label = "inactive"

[[record]]
compound = "CC(C)(C)OC=O"
assigned_label = "inactive"

[[record]]
compound = "Nc1cc(Cl)c([N+](=O)[O-])cc1O"
assigned_label = "inactive"

[[record]]
compound = "CCCCCCCCCCCCC1CO1 (stereo unspecified)"
assigned_label = "inactive"

[[record]]
compound = "Cc1nc2ccc(Cl)cc2[nH]1"
assigned_label = "inactive"

[[record]]
compound = "CCCCN(CCO)CCCC"
assigned_label = "inactive"

[[record]]
compound = "Cc1cccc(C(=O)O)c1"
assigned_label = "inactive"

[[record]]
compound = "Cc1cc(C(=O)O)ccc1[N+](=O)[O-]"
assigned_label = "inactive"

[[record]]
compound = "C=C(C)C(N)=O"
assigned_label = "inactive"

[[record]]
compound = "CC(O)CC(C)O (stereo unspecified)"
assigned_label = "inactive"

[[record]]
compound = "Nc1ccccc1S(=O)(=O)O"
assigned_label = "inactive"

[[record]]
compound = "Nc1cccc([N+](=O)[O-])c1"
assigned_label = "inactive"

[[record]]
compound = "N#CC1(O)CCCCC1"
assigned_label = "inactive"

[[record]]
compound = "O=C(Cl)c1cccc([N+](=O)[O-])c1"
assigned_label = "inactive"

[[record]]
compound = "C/C=C(/C)C#N"
assigned_label = "inactive"

[[record]]
compound = "C=Cc1ccccn1"
assigned_label = "inactive"

[[record]]
compound = "CC=O"
assigned_label = "inactive"

[[record]]
compound = "OC(CCl)CCl"
assigned_label = "inactive"

[[record]]
compound = "ClC/C=C/CCl"
assigned_label = "inactive"

[[record]]
compound = "Cc1ccccc1C(=O)O"
assigned_label = "inactive"

[[record]]
compound = "OCCO"
assigned_label = "inactive"

[[record]]
compound = "CC(=O)C1(C)CC2=C(CCCC2(C)C)CC1C (stereo unspecified)"
assigned_label = "active"

[[record]]
compound = "Cc1ccccc1Br"
assigned_label = "inactive"

[[record]]
compound = "CCNc1cc(O)ccc1C"
assigned_label = "inactive"

[[record]]
compound = "Nc1cccc(S(=O)(=O)O)c1"
assigned_label = "inactive"

[[record]]
compound = "Cc1ccc(C)c(N)c1"
assigned_label = "inactive"

[[record]]
compound = "O=[N+]([O-])c1cccc(Cl)c1"
assigned_label = "inactive"

[[record]]
compound = "CC(=O)OC(C)C"
assigned_label = "inactive"

[[record]]
compound = "CCCOCC(C)O (stereo unspecified)"
assigned_label = "inactive"

[[record]]
compound = "O=C1OC(=O)c2c(Br)c(Br)c(Br)c(Br)c21"
assigned_label = "inactive"

[[record]]
compound = "O=[N+]([O-])c1ccc(NCCO)c(OCCO)c1"
assigned_label = "inactive"

[[record]]
compound = "C=CCOC(=O)COCCC(C)C"
assigned_label = "inactive"

[[record]]
compound = "Cc1cccc2cccnc12"
assigned_label = "inactive"

[[record]]
compound = "O=[N+]([O-])c1cccc(C(F)(F)F)c1"
assigned_label = "inactive"

[[record]]
compound = "c1ccc2c(c1)ccc1ncccc12"
assigned_label = "inactive"

[[record]]
compound = "Nc1cc([N+](=O)[O-])ccc1C(=O)O"
assigned_label = "inactive"

[[record]]
compound = "COC(=O)CCCC(=O)OC"
assigned_label = "inactive"

[[record]]
compound = "O=C1OC(=O)c2c(Cl)c(Cl)c(Cl)c(Cl)c21"
assigned_label = "inactive"

[[record]]
compound = "O=Cc1ccc(Cl)cc1"
assigned_label = "inactive"

[[record]]
compound = "C=CC(=O)NC(C)C"
assigned_label = "inactive"

[[record]]
compound = "Cc1cc(C)cc(O)c1"
assigned_label = "inactive"

[[record]]
compound = "CC(=O)OCCC(C)C"
assigned_label = "inactive"

[[record]]
compound = "CCCCC(CC)COCC1CO1 (stereo unspecified)"
assigned_label = "inactive"

[[record]]
compound = "O=[N+]([O-])c1ccc2nc[nH]c2c1"
assigned_label = "inactive"

[[record]]
compound = "CC(=O)c1ccccn1"
assigned_label = "inactive"

[[record]]
compound = "CCCC=O"
assigned_label = "inactive"

[[record]]
compound = "O=[N+]([O-])c1ccccc1CCO"
assigned_label = "inactive"

[[record]]
compound = "O=C(O)c1c(Cl)cccc1Cl"
assigned_label = "inactive"

[[record]]
compound = "Clc1ccccn1"
assigned_label = "inactive"

[[record]]
compound = "C=CCCCCCC"
assigned_label = "inactive"

[[record]]
compound = "COc1cccc(N)c1"
assigned_label = "inactive"

[[record]]
compound = "CN(C)c1cccc(O)c1"
assigned_label = "inactive"

[[record]]
compound = "CC(CCl)OC(C)CCl (stereo unspecified)"
assigned_label = "inactive"

[[record]]
compound = "COCCOC(=O)c1ccccc1C(=O)OCCOC"
assigned_label = "inactive"


---

Reported max response values are given for each entry in this list.
# assay-summary: qHTS assay for small molecule antagonists of retinoid X receptor alpha signaling (AID 588546);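 note: cells stimulated with 9-cis-retinoic acid as agonist; % is set by controls: 0 for no effect and ±100 for the full control effect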
# experimental-parameters: HEK293T RXRa-UAS-bla, beta-lactamase ratio, antagonist mode; measured here: W530 green channel, cytotoxicity proxy
Inconclusive results are not listed.
readout: max response (%)

[[record]]
molecule = "CC(=O)c1ccc([N+](=O)[O-])cc1"
measured_result = 4.7

[[record]]
molecule = "CCNS(=O)(=O)c1ccc(C)cc1"
measured_result = 0.888

[[record]]
molecule = "O=Cc1ccccc1Cl"
measured_result = 3.56

[[record]]
molecule = "O=[N+]([O-])c1ccc(Cl)cc1Cl"
measured_result = -4.28

[[record]]
molecule = "COc1ccc(N)c(C)c1"
measured_result = -2.69

[[record]]
molecule = "C=C(C)OC(C)=O"
measured_result = 12.2

[[record]]
molecule = "CC=C(Cl)Cl"
measured_result = -7.38

[[record]]
molecule = "Cc1cc(C)cc(N)c1"
measured_result = 1.47

[[record]]
molecule = "Nc1cccc(S(=O)(=O)O)c1"
measured_result = -5.6

[[record]]
molecule = "CN(C)CCCCl"
measured_result = -4.19

[[record]]
molecule = "CCCCC=O"
measured_result = -1.56

[[record]]
molecule = "Cc1ccc2c(c1[N+](=O)[O-])C(=O)c1ccccc1C2=O"
measured_result = -5.46

[[record]]
molecule = "CCCCC(C=O)CC (centres undefined)"
measured_result = 2.69

[[record]]
molecule = "CCC(C)(C)C(=O)O"
measured_result = -3.08


---

# assay-summary: Cell Viability - SH-SY5Y (AID 544);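 note: cells exposed to compound for 40 hours; nearly all actives have a fitted effect of over 55% in size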
# experimental-parameters: SH-SY5Y neuroblastoma cell viability
Results filed as inconclusive are left out. The source made the active and inactive calls. Calls come from the whole dose curve; as a rule, active = well fitted cell-killing curve with a large enough effect; inconclusive = small, poorly fitted or top-dose-only effect; inactive = flat fitted curve, though single readings scatter.
Labels: active, inactive

[[record]]
molecule = "CC(=O)OCc1ccco1"
assigned_label = "active"

[[record]]
molecule = "CCC(=O)/C=C/C1C(C)=CCCC1(C)C (configuration not stated)"
assigned_label = "inactive"

[[record]]
molecule = "CCNS(=O)(=O)c1ccc(C)cc1"
assigned_label = "inactive"

[[record]]
molecule = "CC/C=C1/OC(=O)c2ccccc21"
assigned_label = "inactive"

[[record]]
molecule = "C=Cc1ccc(C=C)cc1"
assigned_label = "inactive"

[[record]]
molecule = "COC(=O)CC#N"
assigned_label = "inactive"

[[record]]
molecule = "CCN(C(=O)N(CC)c1ccccc1)c1ccccc1"
assigned_label = "inactive"

[[record]]
molecule = "Cc1cccc(Br)c1"
assigned_label = "inactive"

[[record]]
molecule = "NC(=S)NNC(N)=S"
assigned_label = "inactive"

[[record]]
molecule = "CC(=O)Nc1ccc(N)cc1"
assigned_label = "inactive"

[[record]]
molecule = "Nc1ccc([N+](=O)[O-])c(N)c1"
assigned_label = "inactive"

[[record]]
molecule = "Cc1c(N)cccc1N"
assigned_label = "inactive"


These data points were gathered from PubChem BioAssay (NCATS).
